tested on: EPO cytokine receptor (JAK2/JAK2); test: Human whole blood spiked with CD34+-derived erythroid progenitor cells, EPO-induced pSTAT5; type: cell-based; conditions: Homo sapiens, Erythroid progenitor cell, read-out: IC50, EPO, pSTAT5
REPORTED_ENDPOINT: IC50 (nM)
Numbers only, in nM.

Query: Identify the measured IC50 of CC[C@@H]1CN(C(=O)NCC(F)(F)F)C[C@@H]1c1cnc2cnc3[nH]ccc3n12 [Upadacitinib] for EPO cytokine receptor (JAK2/JAK2).
Reply: 174

====

biological target: recombinant human kinase domain of TYK2 (Homo sapiens); assay: Enzymatic microfluidic kinase assay, TYK2
Sequence (P29597 897-1176 limits assumed): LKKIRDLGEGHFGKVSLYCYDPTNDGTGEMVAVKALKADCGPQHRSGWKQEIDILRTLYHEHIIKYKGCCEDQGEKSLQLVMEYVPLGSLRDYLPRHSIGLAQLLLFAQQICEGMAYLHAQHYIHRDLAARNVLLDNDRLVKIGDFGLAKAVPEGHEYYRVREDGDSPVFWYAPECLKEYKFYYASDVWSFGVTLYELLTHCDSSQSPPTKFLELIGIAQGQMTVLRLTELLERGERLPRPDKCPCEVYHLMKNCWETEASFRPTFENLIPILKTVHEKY
REPORTED_ENDPOINT: IC50

Query: Reported IC50 for CCS(=O)(=O)N1CC(CC#N)(n2cc(-c3ncnc4[nH]ccc34)cn2)C1 : what is it?
Reply: 14 nM

====

system: IL-6 cytokine receptor (JAK1/JAK2, JAK1/TYK2); experiment: Human whole blood, IL-6-induced pSTAT1, CD14+ cells; format: cell-based; conditions: read-out: IC50,u, IL-6, pSTAT1, CD14+ cells
What pIC50 was measured for each of the following?
Answers are plain numbers, as −log10 of the molar value.

[
  {
    "SMILES_CODE": "CC[C@@H]1CN(C(=O)NCC(F)(F)F)C[C@@H]1c1cnc2cnc3[nH]ccc3n12",
    "pIC50": 7.89
  }
]

Query: Reported pIC50 for O=C(Nc1nc2cccc(-c3ccc(CN4CCS(=O)(=O)CC4)cc3)n2n1)C1CC1 : what is it?
Reply: 6.49

====

test system: IL-7 cytokine receptor (JAK1/JAK3); test: Human whole blood, IL-7-induced pSTAT5, lymphocytes; assay type: cell-based; conditions: Lymphocyte, read-out: IC50,u, IL-7, pSTAT5
REPORTED_ENDPOINT: IC50

[
  {
    "COMPOUND": "O=C(Nc1nc2cccc(-c3ccc(CN4CCS(=O)(=O)CC4)cc3)n2n1)C1CC1 [Filgotinib]",
    "ASSAYED_SYSTEM": "IL-7 cytokine receptor (JAK1/JAK3)",
    "IC50": "1460 nM"
  }
]

Query: Identify the measured IC50 of CC[C@@H]1CN(C(=O)NCC(F)(F)F)C[C@@H]1c1cnc2cnc3[nH]ccc3n12 [Upadacitinib] for IL-7 cytokine receptor (JAK1/JAK3).
Reply: 49 nM

====

test system: EPO cytokine receptor (JAK2/JAK2); test: Human whole blood spiked with CD34+-derived erythroid progenitor cells, EPO-induced pSTAT5; format: cell-based; details: Homo sapiens, Erythroid progenitor cell, read-out: IC50,u, EPO, pSTAT5
REPORTED_ENDPOINT: pIC50
Give bare numbers, as −log10 of the molar value.

Query: Reported pIC50 for CC[C@@H]1CN(C(=O)NCC(F)(F)F)C[C@@H]1c1cnc2cnc3[nH]ccc3n12 : what is it?
Reply: 7.08

====

tested on: IFNα cytokine receptor (JAK1/TYK2); test: Human whole blood, IFNα-induced pSTAT1, lymphocytes; type: cell-based; conditions: Homo sapiens, Lymphocyte, read-out: IC50, IFNα, pSTAT1
REPORTED_ENDPOINT: IC50

[
  {
    "SMILES_CODE": "O=C(Nc1nc2cccc(-c3ccc(CN4CCS(=O)(=O)CC4)cc3)n2n1)C1CC1",
    "IC50": "1320 nM"
  }
]

Please examine the following record next.
Query: Reported IC50 for CC[C@@H]1CN(C(=O)NCC(F)(F)F)C[C@@H]1c1cnc2cnc3[nH]ccc3n12 : what is it?
Reply: 21 nM

====

assay: in vitro; conditions: both, human, pooled human plasma
What fraction unbound at 6 h, 1 μmol/L was measured for each of the following?
Answers are plain numbers.

[
  {
    "SMILES_CODE": "O=C(Nc1nc2cccc(-c3ccc(CN4CCS(=O)(=O)CC4)cc3)n2n1)C1CC1",
    "RECORDED_NUMBER": 0.49
  }
]

Quick batch: fraction unbound at 6 h, 1 μmol/L for everything below.
1. CCS(=O)(=O)N1CC(CC#N)(n2cc(-c3ncnc4[nH]ccc34)cn2)C1
2. CC[C@@H]1CN(C(=O)NCC(F)(F)F)C[C@@H]1c1cnc2cnc3[nH]ccc3n12

Reply:
[0.59, 0.56]

meta.source: paper PMC6857076
